Each recorded value in this set is attributed to patent US8003785B2.

- Assay target: PLK1 (Homo sapiens, UniProt P53350)
- Construct: Full-length, active GST-PLK1 is purified from Sf9 insect cells; made in house; host or cells: Sf9 insect cells
- Sequence (P53350 whole entry): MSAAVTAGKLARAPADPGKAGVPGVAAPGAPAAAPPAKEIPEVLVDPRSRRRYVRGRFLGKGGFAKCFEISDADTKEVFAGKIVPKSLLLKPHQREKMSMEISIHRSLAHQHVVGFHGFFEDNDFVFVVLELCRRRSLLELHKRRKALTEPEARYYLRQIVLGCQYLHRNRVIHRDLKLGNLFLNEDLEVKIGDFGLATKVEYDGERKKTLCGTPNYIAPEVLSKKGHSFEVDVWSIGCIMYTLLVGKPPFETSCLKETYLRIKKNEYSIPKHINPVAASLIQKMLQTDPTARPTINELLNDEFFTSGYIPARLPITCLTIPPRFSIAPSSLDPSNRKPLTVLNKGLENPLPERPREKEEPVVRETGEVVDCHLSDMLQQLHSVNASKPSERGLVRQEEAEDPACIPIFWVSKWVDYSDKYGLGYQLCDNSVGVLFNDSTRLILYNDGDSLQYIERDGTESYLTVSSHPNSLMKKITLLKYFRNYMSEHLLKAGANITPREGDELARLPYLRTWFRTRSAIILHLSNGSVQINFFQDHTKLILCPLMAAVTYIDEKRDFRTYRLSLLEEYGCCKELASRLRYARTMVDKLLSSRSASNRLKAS
- Protocol description: Biochemical Characterization Assay: HTRF kinase assay, GST-PLK1 phosphorylation of GST-p53
- Particulars: GST-PLK1, GST-p53 substrate
pIC50: −log10 of the molar value.
Readout: pIC50

Compound string: CCN1CCC(NC(=O)c2ccc(Nc3ncc4c(n3)N(C3CCCC3)CC(F)(F)C(=O)N4C)c(C)c2)CC1
Assay target: PLK1 (Homo sapiens, UniProt P53350)
pIC50: 7.30 to 9.00

Exercise: Requested field: pIC50. Item: `COc1cc(C(=O)NCCCN(C)C)ccc1Nc1ncc2c(n1)N(C(C)C)CC(F)(F)C(=O)N2C`
Key: 7.30 to 9.00

Exercise: # repeat for `Cc1cc(C(=O)NCCN(C)C)ccc1Nc1ncc2c(n1)N(C1CCCC1)CC(F)(F)C(=O)N2C`
Key: 7.30 to 9.00

Exercise: Similarly, `CCOc1cc(C(=O)NC2CCN(CC)CC2)ccc1Nc1ncc2c(n1)N(C1CCCC1)CC(F)(F)C(=O)N2C` ?
Key: 7.30 to 9.00

Exercise: Thanks! And `COc1cc(C(=O)NC2CCN(C)CC2)ccc1Nc1ncc2c(n1)NCC(F)(F)C(=O)N2C` ?
Key: 6.30 to 7.29

Exercise: Subsequent entry: `COc1cc(C(=O)NC2CCN(C)CC2)ccc1Nc1ncc2c(n1)N(C1CCCCC1)CC(F)(F)C(=O)N2C`
Key: 7.30 to 9.00

###

- Assay target: PLK1 (Homo sapiens)
- Construct: Full-length, active GST-PLK1 is purified from Sf9 insect cells; made in house; host or cells: Sf9 insect cells
- Protocol description: Biochemical Characterization Assay: HTRF kinase assay, GST-PLK1 phosphorylation of GST-p53
- Particulars: GST-PLK1, GST-p53 substrate, ATP
Reported IC50 values for the following molecules.

Known results for molecules:
Molecule: CCN1C(=O)C(F)(F)CN(C2CCCC2)c2nc(Nc3ccc(C(=O)NC)cc3OC)ncc21 [Example I-158]
IC50: 500 to 5000 nM

Molecule: COc1cc(C(=O)NC2CCN(c3ccncc3)CC2)ccc1Nc1ncc2c(n1)N(C1CCCC1)CC(F)(F)C(=O)N2C [Example I-62]
IC50: 1 to 50 nM

Molecule: COc1cc(C(=O)N2CCN(C)CC2)ccc1Nc1ncc2c(n1)N(C1CCCC1)CC(F)(F)C(=O)N2C [Example I-128]
IC50: 1 to 50 nM

Molecule: COc1cc(C(=O)N[C@@H]2CCNC(=O)C2)ccc1Nc1ncc2c(n1)N(C1CCCC1)CC(F)(F)C(=O)N2C [Example I-89]
IC50: 1 to 50 nM

Molecule: COc1cc(C(=O)Nc2cccnc2)ccc1Nc1ncc2c(n1)N(C1CCCC1)CC(F)(F)C(=O)N2C [Example I-130]
IC50: 1 to 50 nM

Molecule: COc1cc(C(=O)N[C@@H]2CCN(C(=O)OCc3ccccc3)C[C@H]2O)ccc1Nc1ncc2c(n1)N(C1CCCC1)CC(F)(F)C(=O)N2C (racemic) [Example I-54]
IC50: 51 to 500 nM

Molecule: COc1cc(C(=O)N[C@H]2CC[C@@H](NC(=O)OC(C)(C)C)CC2)ccc1Nc1ncc2c(n1)N(C1CCCC1)CC(F)(F)C(=O)N2C [Example I-97]
IC50: 51 to 500 nM

Molecule: COc1cc(C(N)=O)ccc1Nc1ncc2c(n1)N(C1CCCC1)CC(F)(F)C(=O)N2 [Example I-152]
IC50: 500 to 5000 nM

Molecule: COc1cc(C(=O)NCCCN2CCN(CCO)CC2)ccc1Nc1ncc2c(n1)N(C1CCCC1)CC(F)(F)C(=O)N2C [Example I-96]
IC50: 1 to 50 nM

Molecule: COc1cc(C(=O)N[C@H]2CC[C@@H](N)CC2)ccc1Nc1ncc2c(n1)N(C1CCCC1)CC(F)(F)C(=O)N2C [Example I-98]
IC50: 1 to 50 nM

Exercise: What does the record list as IC50 for CCN1C(=O)C(F)(F)CN(C2CCCC2)c2nc(Nc3ccc(C(N)=O)cc3OC)ncc21 [Example I-157] ?
Key: 500 to 5000 nM

Exercise: Now try COc1cc(C(=O)NC2CCN(C)CC2)ccc1Nc1ncc2c(n1)N(C1CCCC1)CC(F)(F)C(=O)N2CC(F)(F)F [Example I-150] .
Key: 500 to 5000 nM

Exercise: Further, for COc1cc(C(=O)N[C@@H]2CCNC[C@@H]2OC)ccc1Nc1ncc2c(n1)N(C1CCCC1)CC(F)(F)C(=O)N2C (racemic) [Example I-57] ?
Key: 1 to 50 nM

Exercise: // same read-out, input: COc1cc(C(=O)NN2CCN(C)CC2)ccc1Nc1ncc2c(n1)N(C1CCCC1)CC(F)(F)C(=O)N2C [Example I-118]
Key: 1 to 50 nM

Exercise: Next molecule up: CN1C(=O)C(F)(F)CN(C2CCC2)c2nc(Nc3ccc(C(=O)NC4CCNCC4)cc3)ncc21 [Example I-14]
Key: 1 to 50 nM

Exercise: // next record COc1cc(C(=O)NCCN2CCNCC2)ccc1Nc1ncc2c(n1)N(C1CCCC1)CC(F)(F)C(=O)N2C [Example I-49]
Key: 1 to 50 nM

Exercise: Subsequent entry: COc1cc(C(=O)NCCCN2CCCC2=O)ccc1Nc1ncc2c(n1)N(C1CCCC1)CC(F)(F)C(=O)N2C [Example I-113]
Key: 1 to 50 nM
